# assayName: Single ascending oral dose study in healthy volunteers: plasma pharmacokinetics
# Type: in vivo, human
# experimentalConditions: human, plasma, oral, 10 mg, 6 Hours Postdose; 10 mg; read-out: Plasma concentration, Mean
measuredQuantity: concentration at 6 h (ng/mL)

{"columns": ["compound", "measuredQuantity", "measuredResult"],
 "data": [
  ["Cn1cc(S(=O)(=O)[C@@](C)(F)C2CCN(C(=O)Nc3ccon3)CC2)c(C(F)F)n1 [Compound I]", "concentration at 6 h", 131]
]}

* * *

# assayName: Single ascending oral dose study in healthy volunteers: plasma pharmacokinetics
# Format: in vivo, human
# experimentalConditions: human, plasma, oral, 50 mg; read-out: Tmax, Geometric Mean
measuredQuantity: Tmax

{"columns": ["compound", "measuredQuantity", "measuredResult"],
 "data": [
  ["Cn1cc(S(=O)(=O)[C@@](C)(F)C2CCN(C(=O)Nc3ccon3)CC2)c(C(F)F)n1 [Compound I]", "Tmax", "4.66 h"]
]}

* * *

# assayName: Food effect cross-over study, 200 mg (25 mg tablets), healthy volunteers: plasma pharmacokinetics
# Assay type: in vivo, human
# experimentalConditions: human, plasma, oral, 5 hours postdose, Fed, read-out: Plasma concentration, Geometric Mean
# Procedure: This example describes a clinical study for establishing, in healthy volunteers, the effect of a high fat, high caloric meal on the PK profile of Compound I, as compared to administration of the drug in the fasted state. The study also was intended to determine the safety and tolerability after a single oral dose of Compound I in the fed and fasted state in healthy volunteers. […] Plasma drug concentrations were measured as described in Example 1 above. […]

{"columns": ["compound", "concentration at 5 h"],
 "data": [
  ["Cn1cc(S(=O)(=O)[C@@](C)(F)C2CCN(C(=O)Nc3ccon3)CC2)c(C(F)F)n1 [Compound I]", "3040 ng/mL"]
]}

* * *

# assayName: Single ascending oral dose study in healthy volunteers: plasma pharmacokinetics
# Type: in vivo, human
# experimentalConditions: human, plasma, oral, 350 mg; read-out: AUC0-∞, Geometric Mean
measuredQuantity: AUC(0-inf) (ng·h/mL)

{"columns": ["structureSmilesString", "measuredQuantity", "measuredResult"],
 "data": [
  ["Cn1cc(S(=O)(=O)[C@@](C)(F)C2CCN(C(=O)Nc3ccon3)CC2)c(C(F)F)n1", "AUC(0-inf)", 73600]
]}

* * *

# assayName: Food effect cross-over study, 200 mg (25 mg tablets), healthy volunteers: plasma pharmacokinetics
# Format: in vivo, human
# experimentalConditions: human, plasma, oral, subjects who completed both fasted and fed periods (N = 9), read-out: AUCinf, Fasted LSGM

{"columns": ["molecule", "AUC(0-inf)"],
 "data": [
  ["Cn1cc(S(=O)(=O)[C@@](C)(F)C2CCN(C(=O)Nc3ccon3)CC2)c(C(F)F)n1 [Compound I]", "61100 ng·h/mL"]
]}

* * *

# assayName: Food effect cross-over study, 200 mg (25 mg tablets), healthy volunteers: plasma pharmacokinetics
# Type: in vivo, human
# experimentalConditions: human, plasma, oral, 48 hours postdose, Fed, read-out: Plasma concentration, Geometric Mean

{"columns": ["structureSmilesString", "concentration at 48 h"],
 "data": [
  ["Cn1cc(S(=O)(=O)[C@@](C)(F)C2CCN(C(=O)Nc3ccon3)CC2)c(C(F)F)n1", "0.476 µg/mL"]
]}

Entry source: patent US20220265629A1
